Item-by-item account of Population Healthy Nuclei (%)
- Test system: Fibroblast
- assay_protocol: Multiplex assay against human fibroblast
- Assay type: toxicity, cell-based
- measurement_setup: 12 h, 1 µM, compound concentration 1 uM, replicate 2

| molecule | Population Healthy Nuclei (%) |
| --- | --- |
| Cl.Oc1ccc2c3c1O[C@H]1c4[nH]c5c(c4C[C@@]4(O)[C@@H](C2)N(CC2CC2)CC[C@]314)C[C@@]1(O)[C@H]2Cc3ccc(O)c4c3[C@@]1(CCN2CC1CC1)[C@H]5O4 | 86% |
| COc1ccc(S(=O)(=O)N(CCO)c2ccccc2CN(C)C/C=C/c2ccc(Cl)cc2)cc1.O=P(O)(O)O | 33% |
| Cl.O=c1c2cccn2c2ccccc2n1CCCN1CCC(c2ccc(Cl)cc2)CC1 | 73% |
| CCNc1cc(N[C@H]2CC[C@H](O)CC2)nc(Nc2ccc3c(ccn3Cc3ccccc3)c2)n1 | 29% |
| COc1cc2ncnc(Nc3ccc(F)c(Cl)c3)c2cc1NC(=O)/C=C/CN1CCCCC1 [DACOMITINIB ANHYDROUS] | 36% |
| CCn1c(=O)c(-c2ccc(-c3cncs3)cc2Cl)cc2cnc(Nc3ccc(N4CCN(C)CC4)cc3)nc21 | 78% |
| CNC(=O)c1ccc(Nc2nc(OC3CCCC3)c3c(-c4ccc5nc(C)oc5c4)c[nH]c3n2)c(OC)c1 | 34% |
| O=C(Nc1ccc(Cl)cc1)Nc1cccc(-c2cccc(N3CCCC3)n2)c1 | 76% |
